These measurements were taken from patent US8580556B2.

System: tetA promoter (PtetA)-lacZ reporter in E. coli KM3
Assay type: cell-based
Conditions: Table 4; chlorimuron 20 μg/ml (20 ppm); 48 hrs at 30° C.
value kind: relative β-galactosidase activity, inducer Ci
Lab note: record the figure alone, no unit after it.

// known answers, use as guide
{"molecule": "L1-9: library L1 hit, sulfonylurea-responsive TetR(B) variant, parent of L2 and L4 (protein, Sulfonylurea responsive repressor L1-09) MGSRLDKSKVINSALELLNEVGIEGLTTRKLAQKLGVEQPTLYWHVKNKRALLDALAIEMLDRHATHFCPLEGESWQDFLRNNAKSMRCALLSHRDGAKVCLGTGFTEKQYETAENSLAFLCQQGFSLENALYAMQAVCIFTLGCVLLDQELQVAKEERETPTTDSMPPLLRQALELKDHQGAEPAFLFGLELIICGLEKQLKCESGS", "measured result": 9.8}
{"molecule": "L1-2: library L1 hit, sulfonylurea-responsive TetR(B) variant, SEQ ID NO: 3 (protein, Sulfonylurea responsive repressor L1-02) MGSRLDKSKVINSALELLNEVGIEGLTTRKLAQKLGVEQPTLYWHVKNKRALLDALAIEMLDRHATHFCPLEGESWQDFLRNNAKSFRCALLSHRDGAKVCLGTAVTEKQYETMENILAFLCQQGFSLENALYARRAVIAFTLGCVLWDQEYQVAKEERETPTTDSMPPLLRQARELIDHQGAEPAFLFGLELIICGLEKQLKCESGS", "measured result": 13.6}

Suppose we examine the molecule L1-7: library L1 hit, sulfonylurea-responsive TetR(B) variant, SEQ ID NO: 4 (protein, Sulfonylurea responsive repressor L1-07) MGSRLDKSKVINSALELLNEVGIEGLTTRKLAQKLGVEQPTLYWHVKNKRALLDALAIEMLDRHNTHFCPLEGESWQDFLRNNAKSWRCALLSHRDGAKVVLGTAITEKQYETHENPLAFLCQQGFSLENALYAIAAVRRFTLGCVLVDQERQVAKEERETPTTDSMPPLLRQASELQDHQGAEPAFLFGLELIICGLEKQLKCERGS ; what relative β-galactosidase activity, inducer Ci value has been reported? 16.5
